// Specific activity, 4-O-methyl butein lookup, one value per entry
# experimental.protocol: Specific activity of purified CHI, absorbance decrease at 384 nm, 4-O-methyl butein; note: unit not given here
# Type: biochemical
# condition.label: purified CHI in 50 mM PBS, 100 μM substrate, 25° C.
measured.property: Specific activity, 4-O-methyl butein

| molecule | reported.value |
| --- | --- |
| CHI4: Chalcone isomerase from Acetoanaerobium noterae, access no. WP_079589066.1 (protein, listed as Acetoanaerobium noterae) ADFEFNPMRSLIYVDVVKEDYRHMLKHWLYRHHIPDSISQFGPYVTKYAFYPALPTPPEGDRFGTIRMQLTEHYWTVNPFTSNFKNKAFTEFFPIDILKWQGNIPDDSKVAALEGEEVVKLEGDDARASGGDNGCPPFIFAFVPICWEEDFKGSQRTVEDGPNYRWQFVMKYPEGVTMKEGDKWFYEEMIPKFKDMPDVLRILSSKIIQQVNGCPYHRVVEMWFNCPSAWYRSAVEKAKEIKKPSWAKYDVFPYLKPKFEIASLFLTDIAESDNYSQYRGYITMR | 0.4 |
| CHI1: Chalcone isomerase from Fusibacter sp. 3D3, access no. WP_069876268.1 (protein, Fusibacter sp. 3D3) SYVPEFKPMRSFILNNVRSDNDRPKAFRWLYKQHVPESISQFRPYCTKYATYHALPLVEGAEQFGTYNWIMTEHYWNFNIFQDKGLGHSRGLAFTEAYPHDFMEITCQPPSNTLRQSGWQGSAEGYHPIVFCFAPIFWENDFKGSERLTDDGANFRWLFFLSYPEGVTVEEGDQWFLETFAKEAAEMPEVIRFLSSRVMDSPRINPFDRIVELWFDDSEAWHNAMVKNGHLFTKPAWSKVDQFPFFEAYKDITGVFIMDRPDSDHLAQWQGYITTR | 0.2 |
| CHIera Mut8: Chalcone isomerase variant 8 from Eubacterium ramulus, genetically engineered (protein, listed as Eubacterium ramulus) MADFKFEPMRSLIYVDCVSEDYRPKLQRWIYKVHIPDSISKFEPYVTKYAFYPSFPIPPQGDRFGYARMQLTEHHWLVSPLDPRLEINAIAETFPMDVLVWQGQIPAAAHTDAQIDSDGDAGEAARKSNNAEGNPFIFAFLPMWWEKDLKGKGRTIEDGANYRFNMTIGFPEGVDKAEGEKWLFEKVVPILQAAPECTRVLASAVKKDINGCVMDWVLEIWFENQSGWYKVMVDDMKALEKPSWAQQDAFPFLKPYHNVCSAAVADYTPSNNLANYRGYITMR | 0.5 |
| CHI2: Chalcone isomerase from Tepidanaerobacter acetatoxydans, access no. WP_013779275.1 (protein, Tepidanaerobacter acetatoxydans) DTEFKPMRSLIYVGVAKEEYRHKLKNWLYRYHIPDSISQFAPYVTKYAFYNALPVPPEGERFGAYNMQLTEHYWLINPMNPQLKIKAFTEFFPVDVLKWQGNIPDDADADSVNIEGDAARSSGGDNGMPPFIFAFIPFWWEEDFKGAGRTVEDGPNYRWQFLIQYPNGISLEEGDQWFYKKLVPAFKEMPEVNRFLTSRVIRDVNDCQFHRVIEMWFDGPEEWYRAAVEKGKSIERPHWATAEEFPYLKPKFQIASLFLTDIADSDNYSQYRGYITMR | 0.8 |
